Property: IC50; scope: individual compounds
# TEST TARGET: D(2) dopamine receptor (Homo sapiens)
# Sequence (P14416 whole entry): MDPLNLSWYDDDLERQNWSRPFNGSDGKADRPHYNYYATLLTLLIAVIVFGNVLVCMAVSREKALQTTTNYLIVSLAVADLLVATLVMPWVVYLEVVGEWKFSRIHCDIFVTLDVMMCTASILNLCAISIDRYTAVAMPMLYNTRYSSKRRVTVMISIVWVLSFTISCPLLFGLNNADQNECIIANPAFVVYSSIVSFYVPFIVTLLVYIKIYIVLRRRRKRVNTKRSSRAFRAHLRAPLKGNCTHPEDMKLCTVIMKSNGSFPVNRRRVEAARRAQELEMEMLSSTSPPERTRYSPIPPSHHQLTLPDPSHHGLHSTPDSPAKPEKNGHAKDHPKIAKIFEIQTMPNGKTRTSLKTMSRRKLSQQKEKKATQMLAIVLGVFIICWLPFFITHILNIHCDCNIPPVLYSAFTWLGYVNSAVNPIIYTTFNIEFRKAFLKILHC
# ASSAY NAME: Antagonistic activity at human dopamine D2 receptor measured after 60 mins by Lance Ultra cAMP assay
Write the answer as a number in nM, unit excluded.

Consider the worked cases shown below.
>  <MOLECULE>
CNC(=O)c1cc(OCCCCN2CCN(c3cccc4sc(F)cc34)CC2)ccn1

>  <DISPLAY UNIT>
nM

>  <IC50>
8

$$$$
>  <MOLECULE>
CNC(=O)c1cc(OCCCCN2CCC(c3noc4cc(F)ccc34)CC2)ccn1

>  <DISPLAY UNIT>
nM

>  <IC50>
59.8

$$$$

Now consider a different compound.
Bench note: what IC50 did CNC(=O)c1cccc(OCCCCN2CCC(c3noc4cc(F)ccc34)CC2)n1 show?
9.3

* * *

# TEST TARGET: UniProt:P14416
# ASSAY NAME: Antagonistic activity at human dopamine D2 receptor measured after 60 mins by Lance Ultra cAMP assay
Property: IC50; scope: individual compounds
Answer format: value, then unit.

>  <MOLECULE>
CCNC(=O)c1cc(OCCCCN2CCC(c3noc4cc(F)ccc34)CC2)ccn1

>  <IC50>
37.6 nM

$$$$
>  <MOLECULE>
CNC(=O)c1cc(OCCCCN2CCN(c3nsc4ccccc34)CC2)ccn1

>  <IC50>
11.4 nM

$$$$
>  <MOLECULE>
O=C(NC1CC1)c1ccnc(OCCCCN2CCC(c3noc4cc(F)ccc34)CC2)c1

>  <IC50>
51.7 nM

$$$$
>  <MOLECULE>
CNC(=O)c1cccc(OCCCCN2CCN(c3ccc4ccsc4c3)CC2)n1

>  <IC50>
412 nM

$$$$
>  <MOLECULE>
CNC(=O)c1cc(OCCCCN2CCN(c3cccc(Cl)c3Cl)CC2)ccn1

>  <IC50>
26.5 nM

$$$$
>  <MOLECULE>
O=C(NC1CC1)c1cncc(OCCCCN2CCC(c3noc4cc(F)ccc34)CC2)c1

>  <IC50>
42.5 nM

$$$$

Bench note: what IC50 did O=C(NC1CC1)c1cc(OCCCCN2CCN(c3nsc4ccccc34)CC2)ccn1 show?
65.2 nM

* * *

# TEST TARGET: D(2) dopamine receptor (Homo sapiens)
# ASSAY NAME: Antagonistic activity at human dopamine D2 receptor measured after 60 mins by Lance Ultra cAMP assay
PROPERTY MEASURED: pIC50
Scale for pIC50: -log10 of concentration given in mol/L; no unit attached.

>  <MOLECULE>
NC(=O)c1cc(OCCCCN2CCN(c3nsc4ccccc34)CC2)ccn1

>  <TEST TARGET>
D(2) dopamine receptor (Homo sapiens)

>  <pIC50>
7.37

$$$$
>  <MOLECULE>
O=C(NC1CC1)c1cc(OCCCCN2CCC(c3noc4cc(F)ccc34)CC2)ccn1

>  <TEST TARGET>
D(2) dopamine receptor (Homo sapiens)

>  <pIC50>
7.27

$$$$

Now consider a different molecule.
Bench note: what pIC50 did CCNC(=O)c1cncc(OCCCCN2CCC(c3noc4cc(F)ccc34)CC2)c1 show?
7.23
